meta.source: paper PMC10481938

molecular target: recombinant Schistosoma mansoni cathepsin D-like aspartyl protease 1 (SmCD1) (Schistosoma mansoni); experiment: SmCD1 enzymatic assay (FRET substrate Abz-AIAF/FSRQ-EDDnp); details: recombinant SmCD1, pH 3.5; 95% confidence interval in parentheses
Sequence (P91802 entry or part of it): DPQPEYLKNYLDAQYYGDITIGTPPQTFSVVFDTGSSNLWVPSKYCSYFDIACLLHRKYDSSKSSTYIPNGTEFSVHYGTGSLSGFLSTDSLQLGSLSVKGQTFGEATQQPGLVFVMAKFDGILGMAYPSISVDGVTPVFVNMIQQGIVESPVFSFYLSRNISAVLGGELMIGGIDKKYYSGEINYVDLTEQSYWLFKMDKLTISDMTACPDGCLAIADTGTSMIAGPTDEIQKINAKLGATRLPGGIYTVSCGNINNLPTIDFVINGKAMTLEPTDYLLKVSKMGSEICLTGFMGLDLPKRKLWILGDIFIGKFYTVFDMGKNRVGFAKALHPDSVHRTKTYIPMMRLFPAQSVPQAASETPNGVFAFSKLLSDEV
Listed here are molecules together with their documented IC50.

Item: O=C(CSc1nc2cc([N+](=O)[O-])ccc2[nH]1)Nc1ccc(F)c(F)c1 [Compound 1] | IC50: > 500 µM

Item: Cc1cccc(NC(=O)CSc2ncnc3sc4c(c23)CCC(C)C4)c1 (stereo not shown) [Compound 19] | IC50: 102 µM

Item: Cc1ccc(C(C)(C)C)c(OCCCNCCN)c1 [Compound 12] | IC50: > 500 µM

* * *

molecular target: recombinant Schistosoma mansoni cathepsin D-like aspartyl protease 1 (SmCD1) (Schistosoma mansoni); assay: SmCD1 enzymatic assay (FRET substrate Abz-AIAF/FSRQ-EDDnp); details: recombinant SmCD1, pH 3.5; 95% confidence interval in parentheses
endpointLabel: IC50

Guide cases for IC50, answers given:
> print(dat)
                                   compound  resultvalue
1  CCn1c2ccccc2c2cc(NC(=O)CSC3=C(C#N)C(c4ccccc4F)CC(=O)N3)ccc21 (stereo not shown)     > 500 µM
2      Fc1ccc(-c2ccc(CNCCOc3ccccn3)o2)cc1Cl     > 500 µM
3  N=C(Nc1ccccc1)Nc1nc(=O)cc(CSc2nc3ccccc3s2)[nH]1     > 500 µM

Item: Cc1cccc(NS(=O)(=O)c2ccc3[nH]c(=O)c(=O)[nH]c3c2)c1 | IC50: 83.6 µM
